# Assayed system: T1, recombinant biotinylated human PAR2 extracellular domain (residues 1-75), N-terminal AviTag, C-terminal Flag … (human, UniProt P55085 26-75, biotin on the AviTag (enzymatic biotinylation))
# T1 construct: also called Bio-human-PAR2 ECD; human PAR2 ECD; not shown: N-terminal AviTag (Avidity LLC); C-terminal Flag and poly Histidine tags
# T1 sequence (P55085 26-75): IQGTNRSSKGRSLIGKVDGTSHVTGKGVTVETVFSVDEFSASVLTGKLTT
# Protocol: HTRF competition with Par0067 IgG, scFv
Assign Fold IC50 pH 7.4 (Variant v Par0067) to each entry below.
Give bare numbers, in fold.

PaB670083 scFv (scFv, V domains shown, purified scFv; also called ZZ1OZB-H05) VH: EVQLLESGGGLVQPGGSLRLSCAASGFTFSSYAMNWVRQAPGKGLEWVSTIHHSGHLHSHADHVKGRFTISRDNSKNTLYLQMNSLRAEDTAVYYCARINNDPMDVWGQGTLVTVSS VL: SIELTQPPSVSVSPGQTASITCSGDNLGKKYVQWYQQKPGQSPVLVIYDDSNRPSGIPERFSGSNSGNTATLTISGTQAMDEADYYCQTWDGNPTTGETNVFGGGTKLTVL: 13.7

Would you kindly look at the next entry?
[Q] Given the binder PaB670067 scFv (scFv, V domains shown, purified scFv; also called ZZ1KXE-A05) VH: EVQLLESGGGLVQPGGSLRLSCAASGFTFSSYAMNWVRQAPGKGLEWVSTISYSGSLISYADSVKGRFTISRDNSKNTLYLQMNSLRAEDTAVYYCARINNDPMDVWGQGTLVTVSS VL: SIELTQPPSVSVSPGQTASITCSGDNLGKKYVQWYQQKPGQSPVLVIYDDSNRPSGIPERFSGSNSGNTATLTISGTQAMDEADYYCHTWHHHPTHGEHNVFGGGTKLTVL , what is its reported Fold IC50 pH 7.4 (Variant v Par0067)?
[A] 4.4

Attribution: patent US20180305450A1
